Answer each item with its documented IC50.
# assay-target: JAK1 (Homo sapiens, UniProt P23458)
# Construct: purchased Carna Biosciences
# Sequence (P23458 whole entry): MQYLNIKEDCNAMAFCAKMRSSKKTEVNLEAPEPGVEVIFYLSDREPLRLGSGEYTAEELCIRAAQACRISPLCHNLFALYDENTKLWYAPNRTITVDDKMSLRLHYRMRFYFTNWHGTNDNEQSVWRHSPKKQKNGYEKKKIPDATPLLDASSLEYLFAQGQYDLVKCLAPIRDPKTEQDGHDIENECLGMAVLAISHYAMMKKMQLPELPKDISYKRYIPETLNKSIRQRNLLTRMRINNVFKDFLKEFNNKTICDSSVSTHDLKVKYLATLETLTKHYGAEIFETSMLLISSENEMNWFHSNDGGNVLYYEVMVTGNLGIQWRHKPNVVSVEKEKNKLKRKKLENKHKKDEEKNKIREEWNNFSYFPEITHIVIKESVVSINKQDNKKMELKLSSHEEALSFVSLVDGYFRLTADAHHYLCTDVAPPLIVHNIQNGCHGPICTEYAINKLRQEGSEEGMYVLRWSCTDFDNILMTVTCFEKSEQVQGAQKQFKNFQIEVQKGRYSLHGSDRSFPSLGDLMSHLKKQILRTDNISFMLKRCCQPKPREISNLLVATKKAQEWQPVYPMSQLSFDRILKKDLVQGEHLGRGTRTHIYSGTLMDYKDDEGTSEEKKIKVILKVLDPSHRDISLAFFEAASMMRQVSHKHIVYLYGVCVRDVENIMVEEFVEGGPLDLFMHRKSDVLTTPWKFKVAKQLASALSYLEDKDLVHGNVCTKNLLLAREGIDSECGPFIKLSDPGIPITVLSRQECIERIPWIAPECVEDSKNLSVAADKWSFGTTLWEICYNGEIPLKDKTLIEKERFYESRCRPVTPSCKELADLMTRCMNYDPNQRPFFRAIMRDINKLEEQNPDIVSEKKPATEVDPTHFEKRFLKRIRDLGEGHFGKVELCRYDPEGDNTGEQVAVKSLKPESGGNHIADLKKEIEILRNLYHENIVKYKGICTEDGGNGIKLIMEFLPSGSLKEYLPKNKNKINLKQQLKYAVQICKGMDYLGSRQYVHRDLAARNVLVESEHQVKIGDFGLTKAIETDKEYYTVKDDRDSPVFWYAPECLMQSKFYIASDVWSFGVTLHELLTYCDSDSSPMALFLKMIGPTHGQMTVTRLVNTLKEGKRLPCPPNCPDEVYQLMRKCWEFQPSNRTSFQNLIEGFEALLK
# method-notes: JAK1 microfluidic kinase assay (Caliper EZ Reader II, FAM labeled peptide substrate)
# Assay type: biochemical
# assay-conditions: IC50 JAK1 (10 nM) (Km ATP), JAK1 10 nM, Km ATP
# Experimental: Compounds were tested against JAK1, JAK2, JAK2V617F and TYK2. Assay Formats: JAK activity was determined in the reaction buffer 50 mM HEPES, 0.01% Brij35, 10 mM MgCl2, 2 mM DTT by a microfluidic assay. The phosphorylation of a FAM labeled peptide substrate was monitored in the Caliper EZ Reader II (Perkin Elmer). The assay condition for each batch of enzyme (Carna Biosciences) was optimized to obtain 10% conversion rate of peptide substrate. […]
One number for each entry, in nM.

The cases that follow already have their IC50 on record.
[[record]]
compound = "Cc1cnc(Nc2cnn(C3CC3)c2)nc1-c1ccc(C(=O)NCC#N)cc1 [Example 25]"
observed_measurement = 1.34

[[record]]
compound = "Cc1cnc(Nc2cnn(C3CCN(CC(F)F)CC3)c2)nc1-c1ccc(C(=O)NCC#N)cc1 [Example 19]"
observed_measurement = 1.92

[[record]]
compound = "Cc1cnc(Nc2cnn(C3CCN(CC(F)(F)F)CC3)c2)nc1-c1ccc(C(=O)NCC#N)cc1 [Example 22]"
observed_measurement = 2.37

[[record]]
compound = "Cc1cnc(Nc2cnn(C)c2)nc1-c1ccc(C(=O)NCC#N)cc1 [Example 11]"
observed_measurement = 3.32

[[record]]
compound = "Cc1cnc(Nc2cnn(CC#N)c2)nc1-c1ccc(C(=O)NCC#N)cc1 [Example 4]"
observed_measurement = 1.73


Below is a list of compounds. For each, state its recorded IC50.
1. Cc1cnc(Nc2cnn(C3CCN(C(=O)C(C)(C)C)CC3)c2)nc1-c1ccc(C(=O)NCC#N)cc1 [Example 21]
2. Cc1cnc(Nc2cnn(C3CCN(CC#N)CC3)c2)nc1-c1ccc(C(=O)NCC#N)cc1 [Example 1]
3. CCNC(=O)c1ccc(-c2nc(Nc3cnn(C)c3)ncc2C)cc1 [Example 222]

Output:
[2.22, 1.79, 1890]
